# assayed_system: T1, soluble human RGMc (human, UniProt Q6ZVN8 36-400)
# T1 construct: also called huRGMc; soluble hRGMc
# T1 sequence: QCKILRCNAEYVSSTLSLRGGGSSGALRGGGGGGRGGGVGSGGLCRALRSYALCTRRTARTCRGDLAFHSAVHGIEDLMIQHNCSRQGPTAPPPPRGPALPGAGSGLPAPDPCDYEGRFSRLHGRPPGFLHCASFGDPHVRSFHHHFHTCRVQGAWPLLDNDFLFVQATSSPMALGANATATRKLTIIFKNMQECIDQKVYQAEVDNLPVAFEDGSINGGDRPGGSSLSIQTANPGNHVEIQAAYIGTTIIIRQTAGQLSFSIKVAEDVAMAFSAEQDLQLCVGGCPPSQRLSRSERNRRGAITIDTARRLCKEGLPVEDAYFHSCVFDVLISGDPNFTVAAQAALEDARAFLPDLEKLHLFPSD
# test_description: SPR (BIAcore);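 note: Anti-HJV antibodies, binding affinity to soluble human RGMc measured by BIAcore surface plasmon resonance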
measure: kon (M⁻¹ s⁻¹)
Report the figure in M⁻¹ s⁻¹ without appending any unit label.

Some binders with known kon results, for comparison:
hHA-004 (antibody, human IgG1, kappa, L234A L235A, V domains shown, hIgG1 L234A, L235A, kappa) VH: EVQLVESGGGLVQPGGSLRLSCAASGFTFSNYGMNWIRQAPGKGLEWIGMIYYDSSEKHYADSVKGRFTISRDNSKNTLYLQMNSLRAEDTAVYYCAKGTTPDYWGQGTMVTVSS VL: DVVLTQSPLSLPVTLGQPASISCRSSQSLESSDGDTFLEWFQQRPGQSPRLLIYDVSTRFSGVPDRFSGSGSGTDFTLKISRVEAEDVGVYYCFQVTHDPVTFGQGTKLEIKR :: 7.85e+06
hHA-009 (antibody, human IgG1, kappa, L234A L235A, V domains shown, hIgG1 L234A, L235A, kappa) VH: EVQLVESGGGLVQPGGSLRLSCAASGFTFSNYGMNWVRQAPGKGLEWIGMIYYDSSEKHYADSVKGRFTISRDNSKNTLYLQMNSLRAEDTAVYYCAKGTTPDYWGQGTMVTVSS VL: DVVLTQSPLSLPVTLGQPASISCRSSQSLADSDGDTFLHWFQQRPGQSPRLLIYAVSHRFSGVPDRFSGSGSGTDFTLKISRVEAEDVGVYYCFQATHDPVTFGQGTKLEIKR :: 1.55e+07
hHA-001 (antibody, human IgG1, kappa, L234A L235A, V domains shown, hIgG1 constant region with L234A, L235A, kappa) VH: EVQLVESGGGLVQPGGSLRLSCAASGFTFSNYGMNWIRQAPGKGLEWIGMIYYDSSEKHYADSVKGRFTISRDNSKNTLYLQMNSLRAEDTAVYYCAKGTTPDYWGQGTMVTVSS VL: DVVLTQSPLSLPVTLGQPASISCRSSQSLETSDGDTFLEWFQQRPGQSPRLLIYEVSTRFSGVPDRFSGSGSGTDFTLKISRVEAEDVGVYYCFQVTHDPMTFGQGTKLEIKR :: 1.08e+07

Sample hHA-006 (antibody, human IgG1, kappa, L234A L235A, V domains shown, hIgG1 L234A, L235A, kappa) VH: EVQLVESGGGLVQPGGSLRLSCAASGFTFSYYGMNWIRQAPGKGLEWIGMIYYDSSEKHYADSVKGRFTISRDNSKNTLYLQMNSLRAEDTAVYYCAKGTTPDYWGQGTMVTVSS VL: DVVLTQSPLSLPVTLGQPASISCRSSQSLEDSDGGTFLEWFQQRPGQSPRLLIYDVSSRFSGVPDRFSGSGSGTDFTLKISRVEAEDVGVYYCFQATHDPLTFGQGTKLEIKR ; kon observed: 6.65e+06

Sample hHA-003 (antibody, human IgG1, kappa, L234A L235A, V domains shown, hIgG1 L234A, L235A, kappa) VH: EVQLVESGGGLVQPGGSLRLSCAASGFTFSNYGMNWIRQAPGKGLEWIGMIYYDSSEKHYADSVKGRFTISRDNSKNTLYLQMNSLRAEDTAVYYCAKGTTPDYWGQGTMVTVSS VL: DVVLTQSPLSLPVTLGQPASISCRSSQSLETSDGDTFLEWFQQRPGQSPRLLIYEVSNRFSGVPDRFSGSGSGTDFTLKISRVEAEDVGVYYCFQVTHDPVTFGQGTKLEIKR ; kon observed: 8.1e+06

Where do the numbers come from? From patent US20240417458A1.
